Measured Target: UniProtKB P41240
Sequence (P41240 whole entry, looked up): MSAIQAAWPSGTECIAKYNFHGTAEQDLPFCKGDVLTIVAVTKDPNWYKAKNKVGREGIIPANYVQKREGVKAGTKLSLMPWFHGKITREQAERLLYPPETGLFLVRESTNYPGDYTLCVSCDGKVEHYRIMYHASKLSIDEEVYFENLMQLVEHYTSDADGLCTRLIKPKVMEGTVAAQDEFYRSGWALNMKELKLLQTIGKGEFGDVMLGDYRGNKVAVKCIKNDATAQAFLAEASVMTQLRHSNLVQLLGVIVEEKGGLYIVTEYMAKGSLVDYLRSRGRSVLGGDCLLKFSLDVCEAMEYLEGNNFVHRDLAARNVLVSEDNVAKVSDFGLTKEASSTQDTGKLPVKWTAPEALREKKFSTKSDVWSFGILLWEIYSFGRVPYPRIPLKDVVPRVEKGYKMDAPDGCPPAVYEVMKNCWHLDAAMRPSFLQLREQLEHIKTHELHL
Measurement Protocol: radiometric filter-binding kinase assay, Kinase HotSpot
Recorded Conditions: compound 0.5 µM; ATP 10 µM
Known residual activity of a selection of compounds
Quantity Measured: residual activity (%)

| Compound Structure | Measurement |
| --- | --- |
| O=C1c2ccccc2-c2nc3nnnn3nc21 | 84.8 |
| O=C1Nc2ccc(Br)cc2/C1=C\c1cc2c([nH]1)CCCC2 | 98.5 |
| NC(=O)c1cccc(-c2cc(Nc3ccc(OC(F)(F)F)cc3)ncn2)c1 | 104 |
| C[C@@H]1CCN(C(=O)CC#N)C[C@@H]1N(C)c1ncnc2[nH]ccc12 | 101 |
| CN(C)c1ccc(/C=C2\C(=O)Nc3ccccc32)cc1 | 96.9 |
| COc1ccc2c(c1)/C(=C/c1cnc[nH]1)C(O)=N2 | 96.1 |
| N#C/C(=C\c1ccc(O)c(O)c1)C(=O)NCc1ccccc1 | 101 |
| Cc1cccc(-c2nc(C(C)(C)C)[nH]c2-c2ccc3c(c2)OCO3)n1 | 102 |

====

Measured Target: PRKACA (human) (UniProt P17612)
Measurement Protocol: radiometric filter-binding kinase assay, Kinase HotSpot
Recorded Conditions: compound 0.5 µM; ATP 10 µM
Quantity Measured: residual activity (%)

| Compound Structure | Units Label | Measurement |
| --- | --- | --- |
| N#Cc1c[nH]c2c[nH]/c(=N\Cc3cccnc3)cc2/c1=N\c1ccc(F)c(Cl)c1 | % | 92.2 |
| N#C/C(=C\c1ccc(O)c(O)c1)C(=O)NCc1ccccc1 | % | 104 |
| CO[C@@H]1[C@H](N(C)C(=O)c2ccccc2)C[C@H]2O[C@]1(C)n1c3ccccc3c3c4c(c5c6ccccc6n2c5c31)C(=O)NC4 | % | 34 |
| CN(C)c1ccc(/C=C2\C(=O)Nc3ccccc32)cc1 | % | 104 |
| COc1ccc2c(c1)/C(=C/c1cnc[nH]1)C(O)=N2 | % | 99.9 |
| COc1ccc2c(c1)c(C1=C(c3c[nH]c4ccccc34)C(=O)NC1=O)cn2CCCN(C)C | % | 77.9 |
| COc1cc2ncnc(Nc3ccc(OCc4ccccc4)cc3)c2cc1OC | % | 101 |
| Cc1cccc(-c2nc(C(C)(C)C)[nH]c2-c2ccc3c(c2)OCO3)n1 | % | 102 |
| COc1cc(Nc2c(C#N)cnc3cc(OCCCN4CCN(C)CC4)c(OC)cc23)c(Cl)cc1Cl | % | 73.8 |
| COc1ccc(C(=O)Nc2sc3c(c2C(N)=O)CCCC3)cc1OC | % | 102 |
| CC(C)(C)c1cc(C=C(C#N)C#N)cc(Br)c1O | % | 102 |
| CCCCc1c(-c2ccc(OC)cc2)[nH]c2nccnc12 | % | 96.6 |
| CN(C)S(=O)(=O)c1ccc2c(c1)/C(=C/c1cc3c([nH]1)CCCC3)C(=O)N2 | % | 106 |
| O=C1c2ccccc2-c2nc3nnnn3nc21 | % | 76.6 |
| NC(=O)c1cccc(-c2cc(Nc3ccc(OC(F)(F)F)cc3)ncn2)c1 | % | 94.2 |
| COc1ccc(Cl)cc1NC(=O)Nc1cc(C)nc2ccccc12 | % | 101 |
| CS(=O)(=O)CCNCc1ccc(-c2ccc3ncnc(Nc4ccc(OCc5cccc(F)c5)c(Cl)c4)c3c2)o1 | % | 96 |
| Cc1nc(-c2ccccc2)c(-c2ccncc2)o1 | % | 98.9 |
| O=C1C(Cl)=C(N2C(=O)CCC2=O)C(=O)c2ccccc21 | % | 88.8 |
| c1ccc2c(-c3ccncc3)c[nH]c2c1 | % | 91.6 |
| Cn1c2ccccc2c2c3c(c4c5ccccc5n(CCC#N)c4c21)CNC3=O | % | 83.7 |
| Cc1cncc2cccc(S(=O)(=O)N3CCCN(C(=O)CN)C[C@H]3C)c12 | % | 99.5 |
